System: M. hyopneumoniae Str. 11
method_description: MIC against Mycoplasma in vitro (Friis broth with agarose)
Type: cell-based
condition_notes: Mesomycoplasma hyopneumoniae, 144 h; M. hyopneumoniae Str. 11; 6 days at 37° C; read-out: MIC
The following compounds are shown together with reported MIC values.
The figure you give is taken to be in µg/mL; do not add the unit.

In the examples that follow, each entry is paired with its recorded MIC.
compound="CC(=Cc1nnc(-c2ccccc2)o1)CC1OCC(CC2OC2C(C)C(C)O)C(O)C1O (stereo not drawn)" result_number=2.5
compound="CC(=Cc1nc(-c2ccccc2)no1)CC1OCC(CC2OC2C(C)C(C)O)C(O)C1O (stereo not drawn)" result_number=5

# context switch: different compound, same MIC
Q: Give reported MIC value for CC(=Cc1noc(-c2ccccc2)n1)CC1OCC(CC2OC2C(C)C(C)O)C(O)C1O (stereo not drawn)
A: 1

* * *

The following molecules are shown together with reported MIC values.
Test system: M. hyopneumoniae NCTC 101101
method_description: MIC against Mycoplasma in vitro (Friis broth with agarose)
Assay type: cell-based
condition_notes: Mesomycoplasma hyopneumoniae, NCTC101101, 144 h; M. hyopneumoniae NCTC 101101; 6 days at 37° C; read-out: MIC

In the examples that follow, each entry is paired with its recorded MIC.
molecule="CC(=Cc1nc(-c2ccccc2)no1)CC1OCC(CC2OC2C(C)C(C)O)C(O)C1O (stereo not shown)" result="10 µg/mL"
molecule="CC(=Cc1nnc(-c2ccncc2)o1)CC1OCC(CC2OC2C(C)C(C)O)C(O)C1O (stereo not shown)" result="2.5 µg/mL"
molecule="CC(=Cc1nnc(-c2ccc(S(C)(=O)=O)cc2)o1)CC1OCC(CC2OC2C(C)C(C)O)C(O)C1O (stereo not shown)" result="0.5 µg/mL"

Q: Give reported MIC value for CC(=Cc1nnc(-c2ccco2)o1)CC1OCC(CC2OC2C(C)C(C)O)C(O)C1O (stereo not shown)
A: 10 µg/mL

Q: Give reported MIC value for CC(=Cc1nnnn1CCCCCCCCC(=O)O)CC1OCC(CC2OC2C(C)C(C)O)C(O)C1O (stereo not shown)
A: > 10 µg/mL

Q: Give reported MIC value for CC(=Cc1nnc(-c2ccccc2)o1)CC1OCC(CC2OC2C(C)C(C)O)C(O)C1O (stereo not shown)
A: 5 µg/mL

Q: Give reported MIC value for CC(=Cc1nnc(-c2cccnc2)o1)CC1OCC(CC2OC2C(C)C(C)O)C(O)C1O (stereo not shown)
A: 2.5 µg/mL

Q: Give reported MIC value for CC(=Cc1noc(-c2ccccc2)n1)CC1OCC(CC2OC2C(C)C(C)O)C(O)C1O (stereo not shown)
A: 2.5 µg/mL

Q: Give reported MIC value for COC(=O)CCCCCCCCn1nnnc1C=C(C)CC1OCC(CC2OC2C(C)C(C)O)C(O)C1O (stereo not shown)
A: > 10 µg/mL

Q: Give reported MIC value for CC(=Cc1nnnn1Cc1ccc([N+](=O)[O-])cc1)CC1OCC(CC2OC2C(C)C(C)O)C(O)C1O (stereo not shown)
A: 5 µg/mL

* * *

Test system: M. hyopneumoniae J2206/183^b
method_description: MIC against Mycoplasma in vitro (Friis broth with agarose)
Type: cell-based
condition_notes: Mesomycoplasma hyopneumoniae, 144 h; M. hyopneumoniae J2206/183^b; 6 days at 37° C; read-out: MIC
Entries whose MIC is below 2 µg/mL take Y; entries at or above 2 µg/mL take N.

compound="CC(=Cc1nnc(-c2ccncc2)o1)CC1OCC(CC2OC2C(C)C(C)O)C(O)C1O (stereo not shown)" classification=N
compound="CC(=Cc1nnnn1Cc1ccc([N+](=O)[O-])cc1)CC1OCC(CC2OC2C(C)C(C)O)C(O)C1O (stereo not shown)" classification=N
compound="COC(=O)CCCCCCCCn1nnnc1C=C(C)CC1OCC(CC2OC2C(C)C(C)O)C(O)C1O (stereo not shown)" classification=N
compound="CC(=Cc1nnnn1CCCCCCCCC(=O)O)CC1OCC(CC2OC2C(C)C(C)O)C(O)C1O (stereo not shown)" classification=N
compound="CC(=Cc1nnc(-c2cccc(C#N)c2)o1)CC1OCC(CC2OC2C(C)C(C)O)C(O)C1O (stereo not shown)" classification=Y
compound="CC(=Cc1nnc(-c2cccnc2)o1)CC1OCC(CC2OC2C(C)C(C)O)C(O)C1O (stereo not shown)" classification=N
compound="CC(=Cc1nnc(-c2ccc(S(C)(=O)=O)cc2)o1)CC1OCC(CC2OC2C(C)C(C)O)C(O)C1O (stereo not shown)" classification=Y
compound="CC(=Cc1nnc(-c2ccccc2)o1)CC1OCC(CC2OC2C(C)C(C)O)C(O)C1O (stereo not shown)" classification=N
compound="CC(=Cc1nnc(-c2ccco2)o1)CC1OCC(CC2OC2C(C)C(C)O)C(O)C1O (stereo not shown)" classification=N
compound="CC(=Cc1noc(-c2ccccc2)n1)CC1OCC(CC2OC2C(C)C(C)O)C(O)C1O (stereo not shown)" classification=N

Q: Is MIC of CC(=Cc1nc(-c2ccccc2)no1)CC1OCC(CC2OC2C(C)C(C)O)C(O)C1O (stereo not shown) strictly below 2 µg/mL?
A: N

Q: Is MIC of CC(=Cc1nnc(-c2cccc([N+](=O)[O-])c2)o1)CC1OCC(CC2OC2C(C)C(C)O)C(O)C1O (stereo not shown) strictly below 2 µg/mL?
A: Y

Q: Is MIC of CC(=Cc1nc(-c2ccc([N+](=O)[O-])cc2)no1)CC1OCC(CC2OC2C(C)C(C)O)C(O)C1O (stereo not shown) strictly below 2 µg/mL?
A: Y

* * *

Tested on: Erysipelothrix rhusiopathiae NCTC 8163
assay_endpoint: MIC (µg/mL)
The figure you give is taken to be in µg/mL; do not add the unit.

In the examples that follow, each entry is paired with its recorded MIC.
compound="CC(=Cc1nc(-c2ccc([N+](=O)[O-])cc2)no1)CC1OCC(CC2OC2C(C)C(C)O)C(O)C1O (centres unmarked)" test_target="Erysipelothrix rhusiopathiae NCTC 8163" assay_endpoint=MIC result_number=10
compound="CC(=Cc1nnc(-c2cccc([N+](=O)[O-])c2)o1)CC1OCC(CC2OC2C(C)C(C)O)C(O)C1O (centres unmarked)" test_target="Erysipelothrix rhusiopathiae NCTC 8163" assay_endpoint=MIC result_number=40

Q: # return MIC of CC(=Cc1nnc(-c2ccncc2)o1)CC1OCC(CC2OC2C(C)C(C)O)C(O)C1O (centres unmarked) (system: Erysipelothrix rhusiopathiae NCTC 8163)
A: 80

Q: # return MIC of CC(=Cc1nnc(-c2ccccc2)o1)CC1OCC(CC2OC2C(C)C(C)O)C(O)C1O (centres unmarked) (system: Erysipelothrix rhusiopathiae NCTC 8163)
A: 80

Q: # return MIC of CC(=Cc1nnc(-c2ccc(N(C)C)cc2)o1)CC1OCC(CC2OC2C(C)C(C)O)C(O)C1O (centres unmarked) (system: Erysipelothrix rhusiopathiae NCTC 8163)
A: 40

* * *

MIC, Erysipelothrix rhusiopathiae NCTC 8163: measured values

In the examples that follow, each entry is paired with its recorded MIC.
molecule="CC(=CC(=O)NN)CC1OCC(CC2OC2C(C)C(C)O)C(O)C1O (stereo not drawn) [Example 9, Monohydrazide A]" test_target="Erysipelothrix rhusiopathiae NCTC 8163" result="> 80 µg/mL"
molecule="CC(=Cc1nnnn1Cc1ccc([N+](=O)[O-])cc1)CC1OCC(CC2OC2C(C)C(C)O)C(O)C1O (stereo not drawn) [Example 12]" test_target="Erysipelothrix rhusiopathiae NCTC 8163" result="> 80 µg/mL"

Q: # return MIC of CC(=Cc1nnc(-c2ccco2)o1)CC1OCC(CC2OC2C(C)C(C)O)C(O)C1O (stereo not drawn) [Example 8] (system: Erysipelothrix rhusiopathiae NCTC 8163)
A: > 80 µg/mL
